# target entity: CYP2C19 (Homo sapiens)
# Construct: using pooled human liver microsomes; tissue BD Gentest Co. H161; host or cells: pooled human liver microsomes
# Sequence (P33261 whole entry): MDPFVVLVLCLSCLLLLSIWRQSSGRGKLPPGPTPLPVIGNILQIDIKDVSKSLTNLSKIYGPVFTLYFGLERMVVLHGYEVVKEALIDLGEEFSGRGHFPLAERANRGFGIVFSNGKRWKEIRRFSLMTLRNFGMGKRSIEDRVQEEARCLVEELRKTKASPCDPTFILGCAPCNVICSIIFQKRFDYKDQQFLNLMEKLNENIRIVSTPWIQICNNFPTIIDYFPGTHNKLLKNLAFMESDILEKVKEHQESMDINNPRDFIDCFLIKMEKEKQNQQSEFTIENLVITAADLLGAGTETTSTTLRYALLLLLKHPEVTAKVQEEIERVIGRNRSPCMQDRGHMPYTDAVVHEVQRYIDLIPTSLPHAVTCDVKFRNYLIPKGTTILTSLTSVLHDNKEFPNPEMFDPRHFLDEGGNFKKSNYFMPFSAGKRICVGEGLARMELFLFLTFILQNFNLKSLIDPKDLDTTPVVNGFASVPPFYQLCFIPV
# measurement notes: CYP2C19 S-mephenytoin 4'-hydroxylation inhibition in pooled human liver microsomes
# Assay type: in vitro ADME
# test context: pre-incubated 30 min with NADPH; 100 μM S-mephenytoin; mean ± SD, n = 3; read-out: IC50 with preincubation, CYP2C19 S-mephenytoin 4'-hydroxylation
pIC50: −log10 of the molar value.

compound: COc1cc2c(cc1OC)C1C(C)c3ccc(OC)c(OC)c3CN1CC2 (stereo not shown)
target entity: CYP2C19 (Homo sapiens)
pIC50: 4.72

---

# Test system: CYP3A
# measurement notes: Time- and concentration-dependent inactivation of CYP3A-mediated midazolam hydroxylation in human liver microsomes
# Format: in vitro ADME
# test context: probe midazolam (1'-hydroxylation), estimated from kobs vs corydaline concentration (10-150 μM), read-out: apparent Ki of inactivation, CYP3A midazolam hydroxylation
metric name: KI (inactivation) (µM)

molecule: COc1cc2c(cc1OC)C1C(C)c3ccc(OC)c(OC)c3CN1CC2 (stereo not shown) [Corydaline]
units label: µM
value reported: 30

---

# target entity: CYP3A (Homo sapiens)
# Construct: using pooled human liver microsomes; tissue BD Gentest Co. H161; host or cells: pooled human liver microsomes
# Sequence (P08684 2-503): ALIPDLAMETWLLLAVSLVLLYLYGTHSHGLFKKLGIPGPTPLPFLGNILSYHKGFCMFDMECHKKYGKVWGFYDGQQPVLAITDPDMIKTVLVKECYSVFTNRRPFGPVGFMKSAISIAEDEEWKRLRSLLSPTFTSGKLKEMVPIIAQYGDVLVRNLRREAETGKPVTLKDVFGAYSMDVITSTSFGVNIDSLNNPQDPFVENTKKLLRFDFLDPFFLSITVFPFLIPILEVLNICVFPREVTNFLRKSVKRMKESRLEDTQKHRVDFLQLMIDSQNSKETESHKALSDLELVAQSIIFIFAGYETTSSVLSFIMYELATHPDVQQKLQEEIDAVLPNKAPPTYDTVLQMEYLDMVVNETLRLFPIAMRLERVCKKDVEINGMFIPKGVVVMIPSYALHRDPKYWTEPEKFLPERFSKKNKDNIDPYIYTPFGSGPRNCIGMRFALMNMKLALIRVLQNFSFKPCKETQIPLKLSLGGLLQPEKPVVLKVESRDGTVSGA
# measurement notes: CYP3A midazolam 1'-hydroxylation inhibition, cocktail assay in pooled human liver microsomes
# Type: in vitro ADME
# test context: pooled human liver microsomes (H161); 2.5 μM midazolam; read-out: IC50 no preincubation, CYP3A midazolam 1'-hydroxylation

compound: COc1cc2c(cc1OC)C1C(C)c3ccc(OC)c(OC)c3CN1CC2 (stereo not shown)
IC50: > 200 µM

---

# target entity: CYP2C9 (Homo sapiens, UniProt P11712)
# Construct: using pooled human liver microsomes; tissue BD Gentest Co. H161; host or cells: pooled human liver microsomes
# Sequence (P11712 whole entry): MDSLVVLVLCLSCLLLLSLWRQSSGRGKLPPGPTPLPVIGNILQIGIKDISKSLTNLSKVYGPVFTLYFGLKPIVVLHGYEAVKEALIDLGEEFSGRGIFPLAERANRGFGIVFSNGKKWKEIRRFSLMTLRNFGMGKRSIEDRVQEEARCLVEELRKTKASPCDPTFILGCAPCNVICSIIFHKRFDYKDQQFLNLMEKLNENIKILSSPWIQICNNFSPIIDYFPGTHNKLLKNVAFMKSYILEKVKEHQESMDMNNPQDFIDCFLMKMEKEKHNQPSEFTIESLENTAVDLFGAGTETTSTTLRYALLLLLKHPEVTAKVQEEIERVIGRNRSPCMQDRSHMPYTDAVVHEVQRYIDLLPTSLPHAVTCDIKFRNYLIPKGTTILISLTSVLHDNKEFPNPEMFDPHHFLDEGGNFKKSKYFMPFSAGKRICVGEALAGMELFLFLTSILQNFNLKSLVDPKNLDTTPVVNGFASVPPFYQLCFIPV
# measurement notes: CYP2C9 diclofenac 4-hydroxylation inhibition in pooled human liver microsomes
# Assay type: in vitro ADME
# test context: pH 7.4, probe diclofenac (1-10 μM), 4-hydroxylation; human liver microsomes; 1-10 μM diclofenac
metric name: Ki at 15 min (µM)

compound: COc1cc2c(cc1OC)C1C(C)c3ccc(OC)c(OC)c3CN1CC2 (stereo not shown)
metric name: Ki at 15 min
units label: µM
value reported: 7

---

# target entity: CYP2D6 (Homo sapiens)
# Construct: using pooled human liver microsomes; tissue BD Gentest Co. H161; host or cells: pooled human liver microsomes
# Sequence (P10635 whole entry): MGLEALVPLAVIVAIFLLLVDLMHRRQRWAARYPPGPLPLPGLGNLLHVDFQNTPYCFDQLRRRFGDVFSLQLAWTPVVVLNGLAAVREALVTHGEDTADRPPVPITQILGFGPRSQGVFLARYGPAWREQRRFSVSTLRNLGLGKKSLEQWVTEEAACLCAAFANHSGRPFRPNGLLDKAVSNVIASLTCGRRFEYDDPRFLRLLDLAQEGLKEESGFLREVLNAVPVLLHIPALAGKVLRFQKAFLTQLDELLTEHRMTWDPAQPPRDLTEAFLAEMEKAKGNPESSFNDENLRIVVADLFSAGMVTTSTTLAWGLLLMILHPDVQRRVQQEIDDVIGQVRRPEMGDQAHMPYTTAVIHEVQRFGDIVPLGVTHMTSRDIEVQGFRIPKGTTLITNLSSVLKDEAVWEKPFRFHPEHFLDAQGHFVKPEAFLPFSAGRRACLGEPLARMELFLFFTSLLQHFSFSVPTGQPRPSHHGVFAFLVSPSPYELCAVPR
# measurement notes: CYP2D6 bufuralol 1'-hydroxylation inhibition in pooled human liver microsomes
# Assay type: in vitro ADME
# test context: pooled human liver microsomes (H161); 5.0 μM bufuralol; mean ± SD, n = 3; read-out: IC50 no preincubation, CYP2D6 bufuralol 1'-hydroxylation
metric name: IC50 (µM)

compound: COc1cc2c(cc1OC)C1C(C)c3ccc(OC)c(OC)c3CN1CC2 (stereo not shown)
units label: µM
value reported: 64.5

---

# target entity: CYP2C9 (Homo sapiens)
pKi: −log10 of the molar value.

compound: COc1cc2c(cc1OC)C1C(C)c3ccc(OC)c(OC)c3CN1CC2 (stereo not shown)
pKi: 5.15

---

# target entity: CYP2C9 (Homo sapiens)
# Construct: using pooled human liver microsomes; tissue BD Gentest Co. H161; host or cells: pooled human liver microsomes
# measurement notes: CYP2C9 diclofenac 4-hydroxylation inhibition in pooled human liver microsomes
# Format: in vitro ADME
# test context: pre-incubated 30 min with NADPH; 10 μM diclofenac; mean ± SD, n = 3; read-out: IC50 with preincubation, CYP2C9 diclofenac 4-hydroxylation
metric name: IC50 (µM)

compound: COc1cc2c(cc1OC)C1C(C)c3ccc(OC)c(OC)c3CN1CC2 (stereo not shown)
units label: µM
value reported: 30.6
